- system: Voltage-gated N-type calcium channel alpha-1B subunit/Amyloid beta A4 precursor protein-binding family A member 1 (Homo sapiens, UniProt Q00975+Q02410)
- Sequence (Q00975 whole entry): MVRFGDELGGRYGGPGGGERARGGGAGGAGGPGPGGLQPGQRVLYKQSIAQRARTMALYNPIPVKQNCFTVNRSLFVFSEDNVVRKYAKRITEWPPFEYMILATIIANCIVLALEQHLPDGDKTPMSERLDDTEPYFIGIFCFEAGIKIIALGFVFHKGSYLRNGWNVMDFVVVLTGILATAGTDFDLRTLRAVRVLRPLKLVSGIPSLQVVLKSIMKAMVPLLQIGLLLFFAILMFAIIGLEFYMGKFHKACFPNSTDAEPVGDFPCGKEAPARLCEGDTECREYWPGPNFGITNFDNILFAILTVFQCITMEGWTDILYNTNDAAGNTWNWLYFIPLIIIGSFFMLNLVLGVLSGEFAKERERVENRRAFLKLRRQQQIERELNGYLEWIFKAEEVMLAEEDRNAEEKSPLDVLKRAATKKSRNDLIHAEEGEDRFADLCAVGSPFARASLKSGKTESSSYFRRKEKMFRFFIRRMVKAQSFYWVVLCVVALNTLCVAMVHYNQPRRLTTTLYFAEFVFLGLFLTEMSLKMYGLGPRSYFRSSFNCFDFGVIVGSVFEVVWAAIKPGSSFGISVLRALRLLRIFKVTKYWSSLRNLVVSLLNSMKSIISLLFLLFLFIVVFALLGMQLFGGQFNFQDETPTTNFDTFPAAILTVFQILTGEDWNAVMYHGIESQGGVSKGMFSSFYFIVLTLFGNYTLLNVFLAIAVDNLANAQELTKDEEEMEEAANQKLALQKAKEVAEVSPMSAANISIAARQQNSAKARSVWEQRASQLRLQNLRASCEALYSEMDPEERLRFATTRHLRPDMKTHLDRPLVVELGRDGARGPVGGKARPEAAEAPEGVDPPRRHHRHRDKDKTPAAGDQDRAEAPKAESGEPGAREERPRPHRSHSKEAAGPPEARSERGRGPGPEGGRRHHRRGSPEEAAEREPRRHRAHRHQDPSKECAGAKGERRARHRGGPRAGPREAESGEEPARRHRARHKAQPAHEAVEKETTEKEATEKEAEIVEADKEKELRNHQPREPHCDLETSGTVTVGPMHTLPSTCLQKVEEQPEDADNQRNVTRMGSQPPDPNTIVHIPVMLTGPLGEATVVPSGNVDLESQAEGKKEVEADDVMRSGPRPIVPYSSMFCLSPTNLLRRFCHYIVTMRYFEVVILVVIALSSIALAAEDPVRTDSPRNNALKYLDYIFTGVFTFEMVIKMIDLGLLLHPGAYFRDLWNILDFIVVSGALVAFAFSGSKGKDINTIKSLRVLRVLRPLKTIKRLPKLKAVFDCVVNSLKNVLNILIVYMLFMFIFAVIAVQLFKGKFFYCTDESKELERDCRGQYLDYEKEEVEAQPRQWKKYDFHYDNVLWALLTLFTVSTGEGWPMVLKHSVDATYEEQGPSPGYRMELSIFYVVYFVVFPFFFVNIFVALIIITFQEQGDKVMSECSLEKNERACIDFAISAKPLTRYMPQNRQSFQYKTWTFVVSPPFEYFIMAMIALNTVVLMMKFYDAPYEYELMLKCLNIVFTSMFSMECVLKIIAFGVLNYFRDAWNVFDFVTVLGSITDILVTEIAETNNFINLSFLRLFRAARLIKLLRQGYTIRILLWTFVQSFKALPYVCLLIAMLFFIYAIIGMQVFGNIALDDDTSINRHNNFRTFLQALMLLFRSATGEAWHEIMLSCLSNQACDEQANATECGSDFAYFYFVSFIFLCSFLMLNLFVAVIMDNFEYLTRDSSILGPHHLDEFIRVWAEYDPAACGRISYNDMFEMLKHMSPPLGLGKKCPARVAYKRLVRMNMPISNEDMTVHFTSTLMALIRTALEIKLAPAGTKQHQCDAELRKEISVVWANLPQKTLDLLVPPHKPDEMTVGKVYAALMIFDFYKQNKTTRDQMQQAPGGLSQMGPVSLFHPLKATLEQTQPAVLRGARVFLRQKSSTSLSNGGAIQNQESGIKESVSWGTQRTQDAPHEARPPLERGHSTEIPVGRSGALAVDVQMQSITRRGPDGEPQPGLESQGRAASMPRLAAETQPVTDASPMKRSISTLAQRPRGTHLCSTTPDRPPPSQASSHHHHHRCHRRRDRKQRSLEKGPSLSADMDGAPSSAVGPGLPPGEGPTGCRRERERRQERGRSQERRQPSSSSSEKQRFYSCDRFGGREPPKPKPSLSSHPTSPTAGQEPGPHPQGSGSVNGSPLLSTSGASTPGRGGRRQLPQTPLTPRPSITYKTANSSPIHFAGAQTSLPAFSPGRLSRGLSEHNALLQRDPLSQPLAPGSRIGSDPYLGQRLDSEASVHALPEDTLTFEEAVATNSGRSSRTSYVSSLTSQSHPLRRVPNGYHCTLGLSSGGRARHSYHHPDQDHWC
- Sequence (Q02410 whole entry): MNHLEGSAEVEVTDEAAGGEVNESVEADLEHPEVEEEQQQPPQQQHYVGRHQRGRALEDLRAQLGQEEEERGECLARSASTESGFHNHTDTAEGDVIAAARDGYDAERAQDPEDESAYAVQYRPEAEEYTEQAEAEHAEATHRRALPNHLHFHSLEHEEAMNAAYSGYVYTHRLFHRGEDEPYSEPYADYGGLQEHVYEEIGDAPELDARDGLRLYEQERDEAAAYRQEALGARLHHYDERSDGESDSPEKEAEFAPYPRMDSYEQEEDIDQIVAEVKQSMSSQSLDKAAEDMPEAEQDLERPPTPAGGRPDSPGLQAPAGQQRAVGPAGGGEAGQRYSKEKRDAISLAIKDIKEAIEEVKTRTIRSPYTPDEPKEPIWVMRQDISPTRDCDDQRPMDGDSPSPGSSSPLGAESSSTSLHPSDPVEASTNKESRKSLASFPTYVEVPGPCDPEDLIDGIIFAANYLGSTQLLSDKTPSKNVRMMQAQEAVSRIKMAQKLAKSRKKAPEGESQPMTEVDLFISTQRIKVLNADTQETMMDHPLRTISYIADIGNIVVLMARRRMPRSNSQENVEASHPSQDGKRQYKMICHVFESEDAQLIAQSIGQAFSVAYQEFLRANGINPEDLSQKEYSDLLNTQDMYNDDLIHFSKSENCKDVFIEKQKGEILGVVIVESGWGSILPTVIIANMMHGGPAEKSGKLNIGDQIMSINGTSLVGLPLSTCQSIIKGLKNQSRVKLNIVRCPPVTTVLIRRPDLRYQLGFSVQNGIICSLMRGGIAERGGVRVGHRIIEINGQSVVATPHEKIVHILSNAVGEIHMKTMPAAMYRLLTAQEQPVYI
- Assay type: protein assay
Activity calls are given as the source filed them.
Can you answer with just one of these options? active, inactive

Solved entries (count: 4):
{"smiles.string": "COc1cccc(/N=c2\\oc3ccc(OC)cc3cc2-c2nc3ccccc3[nH]2)c1", "category": "inactive"}
{"smiles.string": "O=C(Nc1cnc(O)nc1O)c1ccc2c(c1)C(=O)N(c1cccc([N+](=O)[O-])c1)C2=O", "category": "inactive"}
{"smiles.string": "COc1cc(NC(=O)c2ccccc2F)ccc1NC(=O)c1cc2ccccc2o1", "category": "inactive"}
{"smiles.string": "CC(/C=C/c1ccco1)=N\\NC(=O)c1cc(C)[nH]n1", "category": "active"}

With those in mind, consider the next molecule.
Write down the call the test reported for this molecule. Item: `O=c1[nH]c(-c2ccc3c(c2)OCO3)nc2c1sc(=S)n2-c1ccccc1`
inactive

* * *

Provide the recorded IC50 for the entries that follow.
- system: Polyadenylate-binding protein 1 (Homo sapiens)
- Sequence (P11940 whole entry): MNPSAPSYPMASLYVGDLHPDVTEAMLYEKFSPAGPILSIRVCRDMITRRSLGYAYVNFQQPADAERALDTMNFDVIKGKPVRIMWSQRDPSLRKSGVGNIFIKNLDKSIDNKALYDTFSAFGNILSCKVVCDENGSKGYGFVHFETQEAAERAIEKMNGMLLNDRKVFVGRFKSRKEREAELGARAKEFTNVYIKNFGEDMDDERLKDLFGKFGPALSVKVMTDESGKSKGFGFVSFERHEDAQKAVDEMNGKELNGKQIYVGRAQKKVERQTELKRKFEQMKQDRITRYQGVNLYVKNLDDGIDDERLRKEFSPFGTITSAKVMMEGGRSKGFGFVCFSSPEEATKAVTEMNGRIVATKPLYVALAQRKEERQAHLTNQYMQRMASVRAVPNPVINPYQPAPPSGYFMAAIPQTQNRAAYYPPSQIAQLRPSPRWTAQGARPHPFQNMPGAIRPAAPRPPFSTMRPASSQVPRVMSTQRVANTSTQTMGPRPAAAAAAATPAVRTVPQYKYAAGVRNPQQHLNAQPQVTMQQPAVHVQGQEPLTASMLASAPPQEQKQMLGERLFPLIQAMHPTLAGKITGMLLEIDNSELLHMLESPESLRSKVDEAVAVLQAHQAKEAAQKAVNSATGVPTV
- test.name: PABP1 MLLE–PAM2 interaction inhibitors, dose response, miRNA deadenylation inhibitor project, biochemical, fluorescence polarization, Cy5-PAM2 peptide, secondary (AID 602260)
- Type: functional
- particulars: read-out: IC50_Mean
Activity calls are given as the source filed them.

{"molecule": "Nc1nc(O)cc(N=Nc2ccc(O)cc2)n1", "IC50": "> 66 µM (inactive)"}
{"molecule": "CCOC(=O)CC1=C(C(=O)OCC)C(c2ccc(C)o2)C(C#N)=C(N)O1 (stereo not drawn)", "IC50": "> 66 µM (inactive)"}

Proceeding to the next molecule to report its IC50.
Lab note: need IC50 for `COc1ccc(-n2ccnc(SCC(=O)NC3CCCC3)c2=O)cc1OC` on Polyadenylate-binding protein 1 (Homo sapiens), anyone have it?
> 66 µM (inactive)

* * *

- system: Mucolipin-3 (Homo sapiens, UniProt Q8TDD5)
- Sequence (Q8TDD5 whole entry): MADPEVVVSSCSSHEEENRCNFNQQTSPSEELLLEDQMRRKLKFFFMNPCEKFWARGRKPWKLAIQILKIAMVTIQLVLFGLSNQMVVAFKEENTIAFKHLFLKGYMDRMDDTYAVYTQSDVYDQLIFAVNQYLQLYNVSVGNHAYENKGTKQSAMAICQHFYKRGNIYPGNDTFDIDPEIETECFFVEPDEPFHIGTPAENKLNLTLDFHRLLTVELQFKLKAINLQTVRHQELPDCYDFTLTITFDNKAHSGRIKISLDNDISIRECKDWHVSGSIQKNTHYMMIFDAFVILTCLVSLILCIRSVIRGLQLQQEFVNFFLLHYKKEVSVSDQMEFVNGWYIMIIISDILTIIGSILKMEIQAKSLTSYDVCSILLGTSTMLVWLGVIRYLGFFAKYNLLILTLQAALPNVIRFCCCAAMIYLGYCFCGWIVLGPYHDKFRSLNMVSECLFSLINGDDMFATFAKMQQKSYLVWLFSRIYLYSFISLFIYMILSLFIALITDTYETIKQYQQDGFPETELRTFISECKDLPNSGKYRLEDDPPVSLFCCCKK
- test.name: Dose response cell-based high-throughput screening assay for agonists of the transient receptor potential channel ML3 (TRPML3). [Related pubchem assays: 1526, 1424, 1448 ]
- Assay type: functional
Calls of active or inactive are those of the source.
parameter: EC50

{"smiles.string": "CCc1nnc(NC(=O)COc2ccc(N(C)S(=O)(=O)c3ccc(C)cc3)cc2)s1", "reported.result": "3.27 µM (active)"}
{"smiles.string": "CN(C)S(=O)(=O)c1cc([N+](=O)[O-])ccc1N1CCCCCC1", "reported.result": "10.1 µM (not active)"}
{"smiles.string": "O=S(=O)(c1cnc(Cl)c(Br)c1)N1CCc2ccccc21", "reported.result": "7.71 µM (active)"}

Proceeding to the next compound to report its EC50.
Lab note: need EC50 for `Cc1ccccc1OCC(=O)Nc1cc(S(=O)(=O)N2CCCCC2)ccc1N1CCN(C)CC1` on Mucolipin-3 (Homo sapiens, UniProt Q8TDD5), anyone have it?
5.43 µM (active)
